Tested on: UACC-62 melanoma
PROTOCOL_TEXT: NCI-60 one-dose screen, 48 h (100 = growth as untreated, 0 = no growth, -100 = all killed)
PROTOCOL_CONDITIONS: 10 µM
This is part of a sample that, as a whole, favours compounds with a hit. Of some 83,000 tested, about 20% had one in any assay.
Think of 80% as a floor: if growth stands on it or above, it is criterion met; beneath it, criterion not met.

*Q* Please indicate if the recorded growth for "CC(=O)COc1ccc(Cl)cc1Cl" meets or exceeds 80%.
*A* criterion met

*Q* Please indicate if the recorded growth for "CC(C)(C)c1ccc(S(=O)(=O)N[C@H]2CC[C@H]3[C@@H]4CCc5cc(O)ccc5[C@H]4CC[C@]23C)cc1" meets or exceeds 80%.
*A* criterion not met

More entries:
*Q* Please indicate if the recorded growth for "CC[C@H]1OC(=O)[C@H](C)[C@@H](O[C@H]2C[C@@](C)(OC)[C@@H](O)[C@H](C)O2)[C@H](C)[C@@H](O[C@@H]2O[C@H](C)C[C@H](N(C)C)[C@H]2O)[C@](C)(OC)C/C(C)=C2/O[C@@]1(C)C=C2C" meets or exceeds 80%.
*A* criterion not met

*Q* Please indicate if the recorded growth for "CN(C)CCCOc1ccc(NC2=C(Cl)C(=O)C(Nc3ccc(OCCCN(C)C)cc3)=C(Cl)C2=O)cc1" meets or exceeds 80%.
*A* criterion not met

*Q* Please indicate if the recorded growth for COc1cc(/C=C2\CCCC3=C2NC(N)=NC3c2cc(OC)c(OC)c(OC)c2)cc(OC)c1OC (stereo not given) meets or exceeds 80%.
*A* criterion not met

*Q* Please indicate if the recorded growth for "Nc1nc(-c2ccc(Cl)cc2)cc(-c2cc3ccccc3oc2=O)n1" meets or exceeds 80%.
*A* criterion met

*Q* Please indicate if the recorded growth for "CNC(=O)c1c(I)c(NC(C)=O)c(I)c(C(=O)O)c1I" meets or exceeds 80%.
*A* criterion met

*Q* Please indicate if the recorded growth for "COc1ccc2nc(Cl)c(Cn3nnc(Cc4ccccc4)n3)cc2c1" meets or exceeds 80%.
*A* criterion not met

###

Below, each entry is listed with its recorded growth.
Test system: MALME-3M melanoma
PROTOCOL_TEXT: NCI-60 one-dose screen, 48 h (100 = growth as untreated, 0 = no growth, -100 = all killed)
PROTOCOL_CONDITIONS: 10 µM
Compounds without any hit were thinned out: in the full panel of roughly 83,000, 20% have a hit. Active and inactive are the calls of the source. How the source made its calls: active means growth percent below 10; inactive means the rest.

Example results:
*Q* Please look at this compound and report its growth: "O=C1CCn2c1c(O)c1ccccc1c2=O"
*A* 124% (inactive)

*Q* Please look at this compound and report its growth: "O=C(N/N=C/c1ccc(Cl)cc1)c1ccc(Cc2n[nH]c(=O)c3cccnc23)cc1"
*A* 93.2% (inactive)

*Q* Please look at this compound and report its growth: Clc1ccc(/C=C2\CCCC3C2=Nc2ccccc2NC3c2ccc(Cl)cc2)cc1 (centres undefined)
*A* 89.7% (inactive)

More entries:
*Q* Please look at this compound and report its growth: CC(=O)OC1C=CC(OC(C)=O)O1 (centres undefined)
*A* 89.7% (inactive)

*Q* Please look at this compound and report its growth: "COc1ccc([C@H]2[C@H](C(=O)Nc3cccnc3)c3ccccc3C(=O)N2c2ccccc2)cc1"
*A* 108% (inactive)

*Q* Please look at this compound and report its growth: OCC1OC2C(NC(=S)N2c2ccccc2)C(O)C1O (centres undefined)
*A* 131% (inactive)

*Q* Please look at this compound and report its growth: COc1cc2ncnc(NC3CCC(O)CC3)c2cc1OC (centres undefined)
*A* 103% (inactive)

*Q* Please look at this compound and report its growth: "CN(C)CCOc1cccc(-c2nc3sccn3c2-c2ccnc(S(C)(=O)=O)n2)c1"
*A* 101% (inactive)

*Q* Please look at this compound and report its growth: "COc1cc(/C=C/c2cc(/C=C/c3ccc(O)c(OC)c3)n(C(=O)Nc3ccc(C)cc3)n2)ccc1O"
*A* 17.3% (inactive)

src = PubChem BioAssay (NCI)
